Hey, just so you know, these numbers are from patent US7455998B2.

# experimental_system: trypsin (Bos taurus)
# Sequence (P00760 24-246): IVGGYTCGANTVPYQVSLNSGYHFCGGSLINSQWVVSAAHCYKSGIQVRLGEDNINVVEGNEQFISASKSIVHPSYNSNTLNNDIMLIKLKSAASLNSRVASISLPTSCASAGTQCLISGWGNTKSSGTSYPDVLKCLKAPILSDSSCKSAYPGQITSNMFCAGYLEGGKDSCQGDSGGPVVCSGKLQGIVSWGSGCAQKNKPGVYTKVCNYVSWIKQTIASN
# method_description: Trypsin-catalyzed ring opening polymerization of cyclic siloxanes
# Assay type: biochemical, bovine
# Parameters: purchased Sigma-Aldrich #T4665; host or cells: bovine pancreas
# measurement_setup: without trypsin, 25° C., pH 7.0, 8 days, qualitative GC
property: Cyclic Area Percent, Trimer (x = 3), Control

-- ask Please state recorded Cyclic Area Percent, Trimer (x = 3), Control (tested on trypsin (Bos taurus)) of `C[Si]1(C)O[Si](C)(C)O[Si](C)(C)O1`
-- reply (100)

-- ask Please state recorded Cyclic Area Percent, Trimer (x = 3), Control (tested on trypsin (Bos taurus)) of `C[Si]1(C)O[Si](C)(C)O[Si](C)(C)O[Si](C)(C)O1`
-- reply (0.2)

-- ask Please state recorded Cyclic Area Percent, Trimer (x = 3), Control (tested on trypsin (Bos taurus)) of C[Si]1(CCC(F)(F)F)O[Si](C)(CCC(F)(F)F)O[Si](C)(CCC(F)(F)F)O[Si](C)(CCC(F)(F)F)O1 (stereo not shown)
-- reply (0.2)
